observable: melting point

CCCCN(C1=C(Cl)C(=O)c2ccccc2C1=O)c1ccc(S(=O)(=O)Nc2ccccn2)cc1 = 181 to 183 °C
Cc1ccc(CN(C2=C(Cl)C(=O)c3ccccc3C2=O)c2ccc(S(=O)(=O)Nc3ccccn3)cc2)cc1 = 99 to 101 °C

For the compound O=C(NS(=O)(=O)c1ccc(NC2=C(Cl)C(=O)c3ccccc3C2=O)cc1)c1ccccc1 , what melting point is on record?
216 to 217 °C

Next: O=C1C(Nc2ccc(S(=O)(=O)Nc3ccccn3)cc2)=C(N2CCOCC2)C(=O)c2ccccc21
220 to 222 °C

Next: CN1CCN(C2=C(Nc3ccc(S(=O)(=O)Nc4ccccn4)cc3)C(=O)c3ccccc3C2=O)CC1
222 to 224 °C

Next: Cc1ccnc(NS(=O)(=O)c2ccc(NC3=C(Cl)C(=O)c4ccccc4C3=O)cc2)n1
246 to 248 °C

Next: O=C1C=C(Nc2ccc(S(=O)(=O)Nc3ccccn3)cc2)C(=O)c2ccccc21
286 °C (dec.)

Next: COc1cccc(NS(=O)(=O)c2ccc(NC3=C(Cl)C(=O)c4ccccc4C3=O)cc2)c1 [Compound 13e]
213 to 216 °C

----------
observable: melting point

Before answering, review these 5 worked examples.
N=C(N)NS(=O)(=O)c1ccc(NC2=C(Cl)C(=O)c3ccccc3C2=O)cc1 = 294 to 295 °C
O=C1C(Cl)=C(Nc2ccc(S(=O)(=O)Nc3nccs3)cc2)C(=O)c2ccccc21 = 286 to 288 °C
Cc1noc(NS(=O)(=O)c2ccc(NC3=C(Cl)C(=O)c4ccccc4C3=O)cc2)c1C = 208 to 210 °C
O=C1C(Cl)=C(N(Cc2ccc(C(F)(F)F)cc2)c2ccc(S(=O)(=O)Nc3ccccn3)cc2)C(=O)c2ccccc21 = 157 to 159 °C
COc1ccc(NS(=O)(=O)c2ccc(NC3=C(Cl)C(=O)c4ccccc4C3=O)cc2OC)cc1 [Compound 13j] = 165 to 167 °C

For the compound O=C1C(Cl)=C(Nc2ccc(S(=O)(=O)Nc3ccccc3)cc2)C(=O)c2ccccc21 [Compound 13b] , what melting point is on record?
220 to 223 °C

Next: O=C1C(Cl)=C(N(Cc2ccc([N+](=O)[O-])cc2)c2ccc(S(=O)(=O)Nc3ccccn3)cc2)C(=O)c2ccccc21
80 to 82 °C
